# Target Under Test: human C5 protein (human, UniProt P01031 19-673; P01031 678-1676)
# Protocol Notes: cell-based or functional assay
Starred links: 1 amine or outer side, 2 acyl side, 3 side chain; linkers in the order of their positions; H or OH if unused. Positions of bridges follow the written chain, without caps; N, C: chain ends. Non-standard residues stand in square brackets, D forms with d. Primed or numbered codes have the meaning given here. No end group written: not given here. *: point of attachment. mXylyl(3) = bridging moiety between the two residues given in brackets; mXylyl(5) = bridging moiety between the two residues (meta-xylyl); mXylyl″ = bridging moiety between the two marked residues; mXylyl = bridging moiety between residues (mXylyl(i,j)); Ala(1H-tetrazol-5-yl) = N[C@@H](Cc1nnn[nH]1)C(=O)O; Trp(7-aza) = N[C@@H](Cc1c[nH]c2ncccc12)C(=O)O; mXylyl(4) = bridging moiety between residues; mXylylene = c1cc(C[*:1])cc(C[*:2])c1; dPhg = N[C@@H](C(=O)O)c1ccccc1; Chg = N[C@H](C(=O)O)C1CCCCC1; Phg = N[C@H](C(=O)O)c1ccccc1; Tle = CC(C)(C)[C@H](N)C(=O)O; NMeS = CN[C@@H](CO)C(=O)O; hCys = N[C@@H](CCS)C(=O)O; Heptanoyl = CCCCCCC(=O)*; NMeA = CN[C@@H](C)C(=O)O; Nva = CCC[C@H](N)C(=O)O; Sar = CNCC(=O)O
Form field: Avg. IC50, human hemolysis assay (complete human sera) (one value per entry).
Measured Parameter: Avg. IC50, human hemolysis assay (complete human sera)

INSERT INTO results (binder, observed_measurement) VALUES
  ('Ac-[Nva]CYNN[Tle]E[Trp(7-aza)]ECP[Phg][Tle]-NH2 (linker 2-10 via mXylyl(4)) [R3127]', '> 75 µM'),
  ('Ac-[Nva]SYEC[Tle]Y[Trp(7-aza)]EYP[Chg]C[Nva]-NH2 (linker 5-13 via mXylyl(5)) [R3086]', '> 50 µM'),
  ('Ac-[Nva]C[Phg]T[Trp(7-aza)]EY[NMeS]H[hCys][Nva]-NH2 (linker 2-10 via mXylyl(4)) [R3105]', '> 5 µM'),
  ('Ac-[Nva]C[Phg]TW[Ala(1H-tetrazol-5-yl)]Y[NMeS]HC[Nva]-NH2 (linker 2-10 via mXylyl(3)) [R3131]', '> 100 µM'),
  ('Ac-[Nva]CYE[Sar][Tle]Y[Trp(7-aza)]E[Nva][Nva]PC-NH2 (linker 2-13 via mXylyl) [R3010]', '> 100 µM'),
  ('[Nva]CY[Tle][Phg]N[Sar]LC[Phg][NMeA]-NH2 (linker 2-9 via mXylyl(5)) [R3052]', '> 100 µM'),
  ('Heptanoyl-C[dPhg]T[Trp(7-aza)]EY[NMeS]AC[Nva]-NH2 (linker 1-9 via mXylyl″; not fully specified; printed as [mXylyl(1,9)]heptanoyl-C-(D-Phg)-T-azaTrp-E-Y-(N-Me)S-A-C-Nvl-NH2) [R3137]', '> 100 µM'),
  ('[Nva]CCN[Tle][Phg]C[Tle][NMeS]C[Tle]-NH2 (linker (positions not given here) via mXylylene; also: mXylyl-bicyclo: Cys pairing not given here) [R3053]', '> 100 µM'),
  ('Ac-[Nva]CYE[Sar][Tle]Y[Trp(7-aza)]EC[Nva]P[Nva]-NH2 (linker 2-10 via mXylyl) [R3009]', '> 100 µM');
